- Test system: DERL-7 (IL-2 2.5 ng/mL)
- test.method.notes: relative IC50 (inflection point of fitted viability curve, relative to fitted max inhibition); higher = less sensitive
- condition.details: 72 h
So I've got a bunch of compounds here, and I need their relative IC50 values.
Please reply with the bare figure in nM and do not write the unit itself.

// query // relative IC50 lookup, key: Cn1cc(-c2cnn3c(N)c(Br)c([C@@H]4CCCNC4)nc23)cn1
// result 539

// query // relative IC50 lookup, key: Nc1nc(F)nc2c1ncn2[C@@H]1O[C@H](CO)[C@@H](O)[C@@H]1O
// result 3720

// query // relative IC50 lookup, key: CNC(=O)c1cc(Oc2ccc(NC(=O)Nc3ccc(Cl)c(C(F)(F)F)c3)c(F)c2)ccn1
// result 1190

// query // relative IC50 lookup, key: C=CCc1cccc(/C=N/NC(=O)CN2CCN(Cc3ccccc3)CC2)c1O
// result 1980

// query // relative IC50 lookup, key: C[C@@]1(C(=O)Nc2ccc(F)nc2)CCCN1c1nc(Nc2cc(C3CC3)n[nH]2)c2cccn2n1
// result 290

// query // relative IC50 lookup, key: Nc1nc(Cl)nc2c1ncn2[C@H]1C[C@H](O)[C@@H](CO)O1
// result 49.7

// query // relative IC50 lookup, key: CC[C@@]1(O)C(=O)OCc2c1cc1n(c2=O)Cc2cc3ccccc3nc2-1
// result 9.21

// query // relative IC50 lookup, key: COCC[n+]1c2c(n(Cc3cnccn3)c1C)C(=O)c1ccccc1C2=O
// result 9.75

// query // relative IC50 lookup, key: Nc1cc(C(F)(F)F)c(-c2cc(N3CCOCC3)nc(N3CCOCC3)n2)cn1
// result 1070
